biological target: UniProt P56373; assay: Evaluation of human P2X3 receptor inhibitory activity (Fluo-3 calcium fluorescence, FDSS 3000, ATP stimulation); assay type: cell-based; settings: C6BU-1 cells stably expressing human P2X3 receptor, Fluo-3 fluorescence, FDSS 3000;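 further: stimulus was 50 nM ATP with fluorescence followed for 3 min, and the response per well was peak post-ATP fluorescence divided by the reading at measurement start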
Sequence (P56373 whole entry): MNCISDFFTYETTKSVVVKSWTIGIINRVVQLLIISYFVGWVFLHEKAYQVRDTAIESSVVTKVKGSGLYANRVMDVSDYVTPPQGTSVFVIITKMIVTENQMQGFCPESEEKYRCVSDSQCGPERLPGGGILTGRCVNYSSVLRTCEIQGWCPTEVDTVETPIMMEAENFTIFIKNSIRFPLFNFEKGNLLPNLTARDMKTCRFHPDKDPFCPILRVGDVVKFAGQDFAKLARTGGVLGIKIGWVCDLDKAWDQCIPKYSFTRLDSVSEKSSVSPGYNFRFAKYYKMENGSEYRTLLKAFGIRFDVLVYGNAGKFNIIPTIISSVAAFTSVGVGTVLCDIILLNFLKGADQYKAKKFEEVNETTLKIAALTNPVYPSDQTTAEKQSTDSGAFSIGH
pIC50: −log10 of the molar value.

mol: CSc1cccc(/N=c2\[nH]c(=O)n(C[C@H](C)C(=O)O)c(=O)n2Cc2ccc(C)cc2)c1
pIC50: 6.88

mol: CCn1c(=O)[nH]/c(=N\c2ccc(Oc3cc(OC)ncn3)cc2)n(Cc2ccc(Cl)cc2)c1=O
pIC50: 8.30

mol: COC(=O)[C@@H](C)Cn1c(=O)[nH]/c(=N\c2ccc(OC(C)C)c(O)c2)n(Cc2ccc(C)cc2)c1=O
pIC50: 7.68

mol: COC(=O)[C@@H](C)Cn1c(=O)[nH]/c(=N\c2ccc(Oc3ccncc3)cc2)n(Cc2ccc(C)cc2)c1=O
pIC50: 8.40

mol: CNC(=O)CCn1c(=O)[nH]/c(=N\c2ccc(Oc3ccc(O)nc3)cc2)n(Cc2ccc(Cl)cc2)c1=O
pIC50: 7.96

mol: CNC(=O)c1cc(Oc2ccc(/N=c3\[nH]c(=O)[nH]c(=O)n3Cc3ccc(Cl)cc3)cc2)ccn1
pIC50: 7.82

mol: CC1(C)OCC(Cn2c(=O)nc(Cc3cccc(C(F)(F)F)c3)n(Cc3ccc(Cl)cc3)c2=O)CO1
pIC50: 6.26
